# targetSystem: Cannabinoid receptor (Rattus norvegicus) (UniProt Q9QZN9+P20272)
# Sequence (P20272 whole entry, looked up): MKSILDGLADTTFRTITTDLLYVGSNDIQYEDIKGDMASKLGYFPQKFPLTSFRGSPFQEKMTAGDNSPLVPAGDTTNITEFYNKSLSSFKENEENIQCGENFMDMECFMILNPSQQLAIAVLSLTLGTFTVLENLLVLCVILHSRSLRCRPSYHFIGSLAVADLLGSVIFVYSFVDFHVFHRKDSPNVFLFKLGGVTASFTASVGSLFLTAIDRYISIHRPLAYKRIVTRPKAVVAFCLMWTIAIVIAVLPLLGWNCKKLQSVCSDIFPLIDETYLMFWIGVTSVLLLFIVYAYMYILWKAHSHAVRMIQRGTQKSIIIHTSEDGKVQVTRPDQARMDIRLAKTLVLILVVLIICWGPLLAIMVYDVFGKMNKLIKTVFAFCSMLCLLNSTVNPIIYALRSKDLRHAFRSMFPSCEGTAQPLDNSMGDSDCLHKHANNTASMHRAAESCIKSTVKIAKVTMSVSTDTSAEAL
# Sequence (Q9QZN9 whole entry, looked up): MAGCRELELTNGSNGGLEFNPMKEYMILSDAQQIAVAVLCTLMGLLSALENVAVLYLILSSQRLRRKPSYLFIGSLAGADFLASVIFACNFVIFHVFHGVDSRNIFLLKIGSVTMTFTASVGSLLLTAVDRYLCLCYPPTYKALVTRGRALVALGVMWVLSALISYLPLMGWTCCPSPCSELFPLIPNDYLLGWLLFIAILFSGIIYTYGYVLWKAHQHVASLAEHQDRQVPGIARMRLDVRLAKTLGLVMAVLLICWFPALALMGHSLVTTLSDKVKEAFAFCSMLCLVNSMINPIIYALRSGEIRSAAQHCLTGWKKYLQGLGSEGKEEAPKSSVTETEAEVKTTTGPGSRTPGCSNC
# testProtocol: Ratio of Ki at CB1 to Ki at CB2 receptors
# Type: protein assay
Item-by-item account of Ratio
readoutKind: Ratio

{"molecule": "CCCCC[C@@H](O)/C=C/C=C\\C/C=C\\C/C=C\\CCCC(=O)NCCO", "reported": "< 0.6"}
{"molecule": "CCCCC[C@H](O)/C=C/C=C\\CCCCCCCC(=O)NCCO", "reported": "> 1.7"}
{"molecule": "CCCCCC(O)/C=C/C=C\\C/C=C\\C/C=C\\CCCC(=O)NCCO (mixture of isomers)", "reported": "> 0.7"}
{"molecule": "CCCCC/C=C\\C[C@@H](O)/C=C/C=C\\C/C=C\\CCCC(=O)NCCO", "reported": 0.3}
